experiment: Phase 1 Stage 1 clinical pharmacokinetics of SC ZA co-administered with rHuPH20; type: in vivo, human; conditions: human, serum, sc, 0.0781 mg/kg, Subj 71; ZA 0.0781 mg/kg SC; inf […]; PH20 6000 U; read-out: AUC (0-inf)
VALUE TYPE: AUC(0-inf) (ng·h/mL)

O=P(O)(O)C(O)(Cn1ccnc1)P(=O)(O)O ... 693

---

assay: Phase 1 Stage 1 clinical pharmacokinetics of SC ZA co-administered with rHuPH20; assay type: in vivo, human; details: human, serum, sc, 0.0791 mg/kg, AUC (0-24 h), Subj 37; ZA 0.0791 mg/kg SC; inf 0.556 hr; PH20 24000 U
VALUE TYPE: AUC(0-t) (µg·h/mL)

O=P(O)(O)C(O)(Cn1ccnc1)P(=O)(O)O ... 0.536

---

assay: Phase 1 Stage 1 clinical pharmacokinetics of SC ZA co-administered with rHuPH20; type: in vivo, human; conditions: human, serum, sc, 0.0196 mg/kg, Subj 27; ZA 0.0196 mg/kg SC; inf […]; PH20 23976 U; read-out: AUC (0-inf)
VALUE TYPE: AUC(0-inf) (ng·h/mL)

O=P(O)(O)C(O)(Cn1ccnc1)P(=O)(O)O ... 120

---

assay: Phase 1 Stage 1 clinical pharmacokinetics of SC ZA co-administered with rHuPH20; format: in vivo, human; conditions: human, serum, sc, serum; ZA 2 mg SC infusion + 24000 Units rHuPH20; 12 h post infusion; n=3; read-out: Mean Conc.
VALUE TYPE: concentration at 12 h (ng/mL)

O=P(O)(O)C(O)(Cn1ccnc1)P(=O)(O)O [ZA] ... 1.74

---

experiment: Pharmacokinetics of ZA in pig serum after IV or SC infusion with or without rHuPH20 (LC-MS-MS, non-compartmental analysis); type: in vivo; settings: female, Yorkshire, pig, serum, subcutaneous, […], pig 58, Study Group 3, SC, ZA […], rHuPH20 10000 U/mL, 50 mL over 8 min, time 3 h; read-out: Zoledronic Acid Serum Concentration
VALUE TYPE: concentration at 3 h (ng/mL)

O=P(O)(O)C(O)(Cn1ccnc1)P(=O)(O)O ... 10.8

---

experiment: Phase 1 Stage 1 clinical pharmacokinetics of SC ZA co-administered with rHuPH20; type: in vivo, human; conditions: human, serum, sc, serum; ZA 1 mg SC infusion + 24000 Units rHuPH20; 2 h post infusion; individual subjects; read-out: Zoledronic Acid Concentration
VALUE TYPE: concentration at 2 h (ng/mL)

O=P(O)(O)C(O)(Cn1ccnc1)P(=O)(O)O ... 24

---

experiment: Phase 1 Stage 1 clinical pharmacokinetics of SC ZA co-administered with rHuPH20; assay type: in vivo, human; settings: human, serum, sc, serum; ZA 1 mg SC infusion + 24000 Units rHuPH20; 0.5 h post infusion; n=3; read-out: Mean Conc.
VALUE TYPE: concentration at 0.5 h

O=P(O)(O)C(O)(Cn1ccnc1)P(=O)(O)O ... 28.1 ng/mL

---

Assay: Phase 1 Stage 1 clinical pharmacokinetics of SC ZA co-administered with rHuPH20
Assay type: in vivo, human
Conditions: human, serum, sc, serum; ZA 5 mg SC infusion + 24000 Units rHuPH20; 4 h post infusion; n=3; read-out: Median Conc.
Experimental: A pharmacokinetic study of zoledronic acid (ZA) co-administered with rHuPH20 in human subjects was conducted. […] Serum concentration of ZA was determined using a qualified LC-MS-MS assay after derivatization with diazomethane (Zhu, L S et al. (2006) Rapid Commun. […] The assay range was from 2.0 to 400 ng/mL with a lower limit of quantitation (LLOQ) at 2.0 ng/mL. […] Summary statistics (mean, standard deviation, and median) were calculated using JMP or Microsoft Excel.
VALUE TYPE: concentration at 4 h

O=P(O)(O)C(O)(Cn1ccnc1)P(=O)(O)O ... 0.0456 µg/mL
